Where do these numbers come from? They come from ChEMBL document CHEMBL1165972.

- Measurement Target: CYP3A4 (Homo sapiens, UniProt P08684)
- Sequence (P08684 whole entry): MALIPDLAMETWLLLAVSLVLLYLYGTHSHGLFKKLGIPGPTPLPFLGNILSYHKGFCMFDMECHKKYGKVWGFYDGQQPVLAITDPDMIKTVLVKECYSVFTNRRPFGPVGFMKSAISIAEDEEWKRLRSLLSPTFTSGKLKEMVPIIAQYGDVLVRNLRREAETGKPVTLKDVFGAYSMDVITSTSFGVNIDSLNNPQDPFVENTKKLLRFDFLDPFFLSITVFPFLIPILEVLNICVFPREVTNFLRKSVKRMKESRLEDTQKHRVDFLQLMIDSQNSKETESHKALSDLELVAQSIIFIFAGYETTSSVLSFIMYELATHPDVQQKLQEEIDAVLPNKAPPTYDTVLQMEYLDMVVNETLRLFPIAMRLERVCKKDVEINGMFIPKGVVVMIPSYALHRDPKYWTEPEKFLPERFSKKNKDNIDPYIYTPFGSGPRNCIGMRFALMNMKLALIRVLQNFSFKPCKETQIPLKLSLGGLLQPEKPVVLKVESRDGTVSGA
- Method Description: Inhibition of CYP3A4 at 10 uM
- Assay type: ADME
Assay Readout: inhibition at 10 µM (%)
Write the number in % without appending the unit.

Q: Data request, read-out inhibition at 10 µM, for CCCCOC(=O)NS(=O)(=O)c1sc(CC(C)C)cc1-c1ccc(Cn2ccnc2)cc1 [BULOXIBUTID]
A: 82

###

- Measurement Target: CYP2E1 (Homo sapiens, UniProt P05181)
- Sequence (P05181 whole entry): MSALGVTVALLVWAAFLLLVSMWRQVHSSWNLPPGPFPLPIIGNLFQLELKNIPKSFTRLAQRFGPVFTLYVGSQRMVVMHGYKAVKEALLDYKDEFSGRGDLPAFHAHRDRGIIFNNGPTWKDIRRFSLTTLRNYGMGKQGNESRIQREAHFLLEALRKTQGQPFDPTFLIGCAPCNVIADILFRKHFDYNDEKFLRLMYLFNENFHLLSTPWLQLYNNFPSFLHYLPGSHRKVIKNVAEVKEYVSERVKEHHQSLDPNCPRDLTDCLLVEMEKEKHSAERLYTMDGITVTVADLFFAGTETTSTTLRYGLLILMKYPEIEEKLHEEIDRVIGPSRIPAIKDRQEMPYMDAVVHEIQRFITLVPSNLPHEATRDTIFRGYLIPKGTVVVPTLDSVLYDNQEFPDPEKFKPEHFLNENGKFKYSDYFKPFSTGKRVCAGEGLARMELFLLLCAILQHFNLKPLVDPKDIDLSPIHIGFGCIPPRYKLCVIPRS
- Method Description: Inhibition of human recombinant CYP2E1 at 10 uM by spectrofluorimetry
- Format: ADME
Assay Readout: inhibition at 10 µM (%)
Write the number in % without appending the unit.

Q: Data request, read-out inhibition at 10 µM, for "CCCCOC(=O)NS(=O)(=O)c1sc(CC(C)C)cc1-c1ccc(CN2CCCC2=O)cc1"
A: 5
